The origin of these recorded values is patent US12419874B2.

Subject Of Test: GLP-1R (Homo sapiens, UniProt P43220)
Sequence (P43220 24-463): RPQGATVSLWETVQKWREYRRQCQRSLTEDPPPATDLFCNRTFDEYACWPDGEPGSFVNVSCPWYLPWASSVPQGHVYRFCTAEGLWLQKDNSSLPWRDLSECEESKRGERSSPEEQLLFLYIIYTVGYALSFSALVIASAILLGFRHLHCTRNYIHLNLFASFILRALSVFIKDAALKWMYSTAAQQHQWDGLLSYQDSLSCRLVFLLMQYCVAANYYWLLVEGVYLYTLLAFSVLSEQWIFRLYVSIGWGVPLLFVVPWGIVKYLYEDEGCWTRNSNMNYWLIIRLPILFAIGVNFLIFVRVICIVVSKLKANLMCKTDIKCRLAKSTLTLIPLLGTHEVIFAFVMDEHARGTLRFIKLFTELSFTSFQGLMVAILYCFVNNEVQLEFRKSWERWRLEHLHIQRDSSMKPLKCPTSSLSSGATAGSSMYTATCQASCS
Assay Procedure: GLP-1R agonistic activity by One-Lite luciferase assay in HEK293-GLP-1R-luc cells (Example 59)
Type: cell-based
Condition Info: 6 h incubation, read-out: cAMP EC50
Property Label: EC50

Example compounds with recorded EC50:
compound=Cc1cc(-n2nc3c(c2-n2ccn(-c4ccc5c(cnn5C)c4F)c2=O)[C@H](C)N(C(=O)c2cc4cc([C@H]5CCOC(C)(C)C5)ccc4n2[C@@]2(c4noc(=O)[nH]4)C[C@@H]2C)CC32CS(=O)(=O)C2)cc(C)c1F property_label=EC50 test_result="≤ 20 nM"
compound=Cc1cc(-n2nc3c(c2-n2ccn(-c4ccc5c(cnn5C)c4F)c2=O)[C@H](C)N(C(=O)c2cc4cc([C@H]5CCOC(C)(C)C5)ccc4n2[C@@]2(c4noc(=O)[nH]4)C[C@@H]2C)CC32CCC(F)(F)CC2)cc(C)c1F property_label=EC50 test_result="20 to 100 nM"
compound=Cc1cc(-n2nc3c(c2-n2ccn(-c4ccc5c(cnn5C)c4F)c2=O)[C@H](C)N(C(=O)c2cc4cc([C@H]5CCOC(C)(C)C5)ccc4n2[C@@]2(c4noc(=O)[nH]4)C[C@@H]2C)CC32CCN(C(=O)C3CC3)CC2)cc(C)c1F property_label=EC50 test_result="≤ 20 nM"

Now for a further compound.
Data request: EC50 lookup needed for Cc1cc(-n2nc3c(c2-n2ccn(-c4ccc5c(cnn5C)c4F)c2=O)[C@H](C)N(C(=O)c2cc4cc([C@H]5CCOC(C)(C)C5)ccc4n2[C@@]2(c4noc(=O)[nH]4)C[C@@H]2C)CC32CCNC2)cc(C)c1F (stereo partly shown) , thanks.
Data returned: ≤ 20 nM

* * *

Subject Of Test: GLP-1R (Homo sapiens, UniProt P43220)
Assay Procedure: GLP-1R agonistic activity by One-Lite luciferase assay in HEK293-GLP-1R-luc cells (Example 59)
Format: cell-based
Condition Info: 6 h incubation, read-out: cAMP EC50
In this section, each of the compounds is paired with its reported EC50.

compound=Cc1cc(-n2nc3c(c2-n2ccn(-c4ccc5c(cnn5C)c4F)c2=O)[C@H](C)N(C(=O)c2cc4cc([C@H]5CCOC(C)(C)C5)ccc4n2[C@@]2(c4noc(=O)[nH]4)C[C@@H]2C)CC32CCN(S(C)(=O)=O)CC2)cc(C)c1F subject_of_test="GLP-1R (Homo sapiens, UniProt P43220)" property_label=EC50 test_result="≤ 20 nM"
compound="Cc1cc(-n2nc3c(c2-n2ccn(-c4ccc5c(cnn5C)c4F)c2=O)[C@H](C)N(C(=O)c2cc4cc([C@H]5CCOC(C)(C)C5)ccc4n2[C@@]2(c4noc(=O)[nH]4)C[C@@H]2C)CC32CCN(C=O)C2)cc(C)c1F (stereo partly shown)" subject_of_test="GLP-1R (Homo sapiens, UniProt P43220)" property_label=EC50 test_result="≤ 20 nM"
compound="Cc1cc(-n2nc3c(c2-n2ccn(-c4ccc5c(cnn5C)c4F)c2=O)[C@H](C)N(C(=O)c2cc4cc(C5CCOC(C)(C)C5)ccn4c2C2(c4noc(=O)[nH]4)CC2)CC32CC2)cc(C)c1F (single isomer, unassigned) [Compound 185-B]" subject_of_test="GLP-1R (Homo sapiens, UniProt P43220)" property_label=EC50 test_result="20 to 100 nM"

Turning now to a further compound:
Data request: Fill in: EC50 of `Cc1cc(-n2nc3c(c2-n2ccn(-c4ccc5c(cnn5C)c4F)c2=O)[C@H](C)N(C(=O)c2cc4cc([C@H]5CCOC(C)(C)C5)ccc4n2C2(c4noc(=O)[nH]4)CC2)CC32CC2)cc(C)c1F` is ___
Data returned: ≤ 20 nM
